src = PubChem BioAssay (NCI)

Could you please report measured TGI for the items listed next?
# System: HCT-116 colon
# assay explanation: NCI tumour cell line growth inhibition, 48 h

>  <compound>
COc1ccc(CC(NC(=O)[C@H](C)NC(=O)CN2CCOCC2)C(=O)N[C@@H](Cc2ccccc2)C(=O)[C@@]2(C)CO2)cc1 (stereo partly drawn)

>  <TGI>
0.49 µM

$$$$

Please state, for each entry, its recorded TGI.
1. Cc1sc(N)c(S(=O)(=O)c2ccccc2)c1C
2. COC1CC(CC2CCC(C)C(C(C)C(=O)O)O2)OC2(OC(C)(C3CCC(C)(C4OC(C5OC(O)(CO)C(C)CC5C)CC4C)O3)CC2C)C1C (stereo not drawn)

1: > 100 µM; 2: 15.6 µM

Give measured TGI for every item shown.
1. Cc1cccc(C)c1NC(=O)CCC(=O)NC(N)=S
2. O=C1c2ccccc2C(C2c3ccccc3C(=O)c3cc(Br)ccc32)c2ccc(Br)cc21 (stereo not drawn)

1. > 100 µM
2. > 100 µM

Report TGI for every entry below.
1. CCCSc1ccc2[nH]c(N3C(=O)/C(=C/c4cc(OC)c(OC)c(OC)c4)N=C3c3ccccc3)cc2c1
2. CC(=O)OC1CC[C@@]2(C)C(C1)CC(OC(C)=O)[C@@H]1C2CC(OC(C)=O)[C@]2(C)C(C(C)CC=C(c3ccc(Cl)cc3)c3ccc(Cl)cc3)CCC12 (stereo partly drawn)
3. CCCCNC(=O)CCN(C(=O)O)S(=O)(=O)c1ccc(NC(=O)c2ccccc2)cc1
4. CC(=O)[C-](C(C)=O)c1ccccc1.CC(=O)[C-](C(C)=O)c1ccccc1.CC[O-].CC[O-].[Ti+4]
5. CCCCCC(O)(CCCCC)CCCCCCCCC1=C(O)c2[nH]c(=O)ccc2C(=O)C1=O
6. O=C(CNc1ncco1)Nc1ccc(S(=O)(=O)c2ccc(NC(=O)CNc3ncco3)cc2)cc1
7. CCN(CC)CCOc1ccc2c(c1)C(=O)c1cc(OCCN(CC)CC)ccc1-2
8. CC(C)c1cccc(C(=O)NCCN(C)C)c1[N+](=O)[O-]

1: > 37.5 µM; 2: > 100 µM; 3: > 100 µM; 4: > 100 µM; 5: 16.4 µM; 6: 2.98 µM; 7: 15.2 µM; 8: > 100 µM

Quick one: give me TGI for each item below, same order please.
1. O=c1[nH]c(Nc2ccc(Cl)cc2)nc2nc[nH]c12
2. COc1ccc(/C=C(/C)[N+](=O)[O-])cc1
3. N#C/C(N)=C(\C#N)N=Cc1csc2ccccc12
4. CCOC(=O)C(=O)NCCCN1CCOCC1
5. CCOC(=O)N[C@H]1CCc2c(Br)c(OC)c(OC)c(OC)c2-c2ccc(SC)c(=O)cc21
6. N#CC(C(=N/NC(N)=S)/C(=N/NC(N)=S)C(C#N)c1ccc(Cl)cc1)c1ccc(Cl)cc1 (stereo not drawn)

1. > 100 µM
2. 3.14 µM
3. 83.6 µM
4. > 100 µM
5. 11.8 µM
6. > 100 µM

Record TGI per entry; entries follow.
1. COc1cc(C)c(C)c(OC(=O)c2c(C)c(C)c(OC)c(C)c2OC)c1C
2. CC1CN=C(NS(=O)(=O)c2cc(C(=O)Nc3ccc(F)cc3)c(Cl)cc2S)NN1 (stereo not drawn)

1: 39 µM; 2: > 100 µM

Go through the list and state TGI for each entry.
1. NC(=S)N/N=c1\cc(C(=O)Nc2ccc([N+](=O)[O-])cc2[N+](=O)[O-])oc2ccccc12
2. CC(=O)c1ccc2c(c1)N(CCCN1CCN(CCO)CC1)c1ccccc1C2
3. O=C(O)C1(Cc2ccc3c(c2)CCC3)Cc2ccccc2C1=O (stereo not drawn)
4. BrC1=CC=C2NCCCCCCN=C3C=CC(Br)=CC=C3NCCCCCCN=C2C=C1
5. CC(C)(C)OC(=O)CN1CCc2c(sc3ncnc(N/N=C/c4cccc5ccccc45)c23)C1

1: > 100 µM; 2: 30.5 µM; 3: > 100 µM; 4: > 25.5 µM; 5: 6.73 µM

Lab note: each compound below needs its TGI filled in.
1. C/C(=N\Nc1nc2ccccc2o1)c1cc(C)ncn1
2. CC1(C)CCCOc2cccc(c2)OCCCC(C)(C)C1=O
3. COC(OC)C1OC(CO)C(n2cc(F)c(=O)[nH]c2=O)C1O (stereo not drawn)
4. CC(O)(CNS(=O)(=O)c1ccccc1)c1ccccc1 (stereo not drawn)
5. COc1ccc(C(=O)N(C(=O)N2CCN(c3ccccc3)CC2)S(=O)(=O)c2ccccc2)cc1
6. COC(=O)c1ccccc1C1CN=NC12Cc1cc(C)c(C)cc1C2=O (stereo not drawn)
7. O=C1CC2(CCC(O)(c3cccs3)C(C(=O)c3cccs3)C2)C(=O)c2ccccc2N1 (stereo not drawn)
8. O=[N+]([O-])[O-].O=[N+]([O-])[O-].[Au].[Au].c1ccc([P-]c2ccccc2)cc1.c1ccc([P-]c2ccccc2)cc1

["> 100 µM", "> 100 µM", "> 100 µM", "> 100 µM", "42.1 µM", "> 100 µM", "> 100 µM", "> 100 µM"]

Items follow; give TGI for each.
1. O=S(=O)(O)c1cc(N=Nc2cc(S(=O)(=O)O)c3cccnc3c2O)ccc1/C=C/c1ccc(N=Nc2cc(S(=O)(=O)O)c3cccnc3c2O)cc1S(=O)(=O)O
2. CC1(C)CC(=O)c2c(nc(SSc3nc4c(c(-c5ccc(Br)cc5)c3C#N)C(=O)CC(C)(C)C4)c(C#N)c2-c2ccc(Br)cc2)C1
3. CCCCCCCCCCCC(O)=C1C(=O)CC(O)CC1=O (stereo not drawn)
4. Cn1c(=O)cc(NCCc2ccccc2)[nH]c1=O

1. > 100 µM
2. > 10 µM
3. > 100 µM
4. > 100 µM
